We begin with a simple list: items and their reported IC50.
- tested-target: UniProt Q13510
- test: Inhibition of human acid ceramidase using Rbm14-12 fluorogenic substrate incubated for 1 hr by fluorescence assay
- test-conditions: read-out: IC50
measured-parameter: IC50 (nM)

| entry-smiles | val |
| --- | --- |
| Cc1oc(=O)n(C(=O)NCCCCc2ccccc2)c1-c1ccccc1 | 42 |
| Cc1c(-c2ccccc2)oc(=O)n1C(=O)NCCCCc1ccccc1 | 69 |
| O=C(NCCCCc1ccccc1)n1cc(-c2ccccc2)oc1=O | 90 |
| CCCCCNC(=O)n1cc(-c2ccc(F)c(C3CCN(C)CC3)c2)oc1=O | 1920 |
| CN1CCC(c2cn(C(=O)NCCCCc3ccccc3)c(=O)o2)CC1 | 1400 |

====

- tested-target: Acid ceramidase (Homo sapiens) (UniProt Q13510)
- test: Inhibition of human acid ceramidase at 10 uM using N-lauroyl ceramide incubated for 1 hr by LC/MS analysis relative to control
measured-parameter: inhibition (%)

| molecule | val |
| --- | --- |
| CC(C)CNC(=O)n1cc(-c2ccc(F)c(C3CCN(C)CC3)c2)oc1=O | 26 |
| COCCCNC(=O)n1cc(-c2ccccc2)oc1=O | 53 |
| CCC(C)NC(=O)n1cc(-c2ccccc2)oc1=O (racemic) | 21 |
| CC(C)CNC(=O)n1cc(-c2ccc(F)cc2C2CCN(C)CC2)oc1=O | 38 |

====

- test: Stability in mouse plasma at 2 uM after 120 mins by LC/MS-MS analysis
- Assay type: ADME, cell-free
- test-conditions: read-out: Stabilty

| entry-smiles | remaining at 2 h, 2 µM |
| --- | --- |
| CC(C)CNC(=O)n1cc(-c2ccccc2)oc1=O | 70% |
| CN1CCC(c2cc(F)ccc2-c2cn(C(=O)NCCCCc3ccccc3)c(=O)o2)CC1 | 54% |
| CN1CCC(c2cc(-c3cn(C(=O)NCCCCc4ccccc4)c(=O)o3)ccc2F)CC1 | 80% |
| COc1cccc(-c2cn(C(=O)NCCCCc3ccccc3)c(=O)o2)c1 | 64% |
| COc1cc(-c2cn(C(=O)NCCCCc3ccccc3)c(=O)o2)ccc1F | 64% |
| CN1CCC(c2cccc(-c3cn(C(=O)NCCCCc4ccccc4)c(=O)o3)c2)CC1 | 73% |
| CCCCCNC(=O)n1cc(-c2ccccc2)oc1=O | 60% |

====

Parameter: pIC50. Scope: all listed entries.
- tested-target: Acid ceramidase (Homo sapiens, UniProt Q13510)
- Sequence (Q13510 22-142 limits assumed): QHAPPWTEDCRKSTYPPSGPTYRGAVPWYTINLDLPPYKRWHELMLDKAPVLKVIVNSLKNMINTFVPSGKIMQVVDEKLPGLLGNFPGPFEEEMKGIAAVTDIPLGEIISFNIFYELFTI
- Sequence (Q13510 143-395 limits assumed): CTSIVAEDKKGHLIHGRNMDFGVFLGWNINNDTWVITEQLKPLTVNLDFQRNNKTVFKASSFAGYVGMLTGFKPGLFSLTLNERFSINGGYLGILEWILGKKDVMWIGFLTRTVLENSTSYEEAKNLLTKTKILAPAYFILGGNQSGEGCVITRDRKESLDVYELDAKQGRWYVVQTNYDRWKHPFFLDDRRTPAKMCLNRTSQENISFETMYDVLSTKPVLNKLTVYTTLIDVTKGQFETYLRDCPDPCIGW
- test: Inhibition of human acid ceramidase
pIC50: −log10 of the molar value.

| compound | pIC50 |
| --- | --- |
| CCCCCCCCCCCCCC(=O)NCC(O)c1ccccc1 (stereo not drawn) | 5.89 |
| CCCCCCCC/C=C\CCCCCCCC(=O)NCCO [OLEOYLETHANOLAMIDE] | 3.30 |
| CCCCCCCCCCCCCCC[C@@H](O)[C@H](CO)NC(=O)CBr | 7.28 |
| CCCCCCNC(=O)n1cc(Cl)c(=O)n(C(=O)OCC(C)C)c1=O | 7.89 |
| COc1ccc(/C=C/C(=O)c2c(-c3ccccc3)c3ccccc3[nH]c2=O)cc1 | 4.55 |
| CCCCCCNC(=O)n1nc(C)cc1C(F)(F)F | 7.85 |
| N=C(N)Nc1ccc(CC(=O)Oc2ccc(-c3ccccc3)cc2)cc1 | 4.28 |
| CCCCCCNC(=O)n1cc(F)c(=O)n(C(=O)OCC(C)C)c1=O | 8.11 |

Each recorded value in this set is attributed to ChEMBL document CHEMBL4706633.
